target: cloned human MC4R (Homo sapiens)
Construct: made in house; host or cells: Hi5 insect cells (baculovirus infection); membrane preparation
Sequence (P32245 whole entry): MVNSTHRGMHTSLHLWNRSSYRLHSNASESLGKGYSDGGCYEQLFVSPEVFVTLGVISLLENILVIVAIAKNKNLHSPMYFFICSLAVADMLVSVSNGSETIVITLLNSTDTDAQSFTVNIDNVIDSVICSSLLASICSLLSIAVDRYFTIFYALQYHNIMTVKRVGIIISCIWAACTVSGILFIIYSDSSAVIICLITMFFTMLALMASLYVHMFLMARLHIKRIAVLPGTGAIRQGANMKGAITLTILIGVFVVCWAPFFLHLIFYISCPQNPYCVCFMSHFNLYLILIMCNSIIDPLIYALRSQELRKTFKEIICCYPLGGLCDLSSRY
measurement protocol: Membrane binding assay: competitive inhibition of [125I]NDP-α-MSH binding
test conditions: read-out: MC4R IC50
Protocol: Hi5 cells are infected using the following protocol: Cells at a density of 1×10^6 cells/mL are spun down at 1000 rpm (Beckman GS-6KR centrifuge) for 10 minutes. Cells are resuspended in 10% of their original volume in a sterile 50 mL conical centrifuge tube wrapped with aluminum foil. […] Protein content is determined (Bradford, Bio-Rad Protein Assay). […] Dose-response curves are fitted by […] analyses and IC50 values are calculated using ExcelFit.
measured metric: IC50

{"columns": ["substance smiles", "target", "measured metric", "observed value"],
 "data": [
  ["N[C@@H](Cc1ccc(OCc2ccccc2)cc1)C(=O)N1CCCN(Cc2ccncc2)CC1", "cloned human MC4R (Homo sapiens)", "IC50", "> 3000 nM"],
  ["Cc1cccc(CN2CCN(C(=O)[C@@H](N)Cc3ccc(OCc4ccccc4)cc3)CC2)c1", "cloned human MC4R (Homo sapiens)", "IC50", "> 3000 nM"],
  ["N[C@@H](Cc1ccc(Oc2ccccc2)cc1)C(=O)N1CCN(Cc2cccc(Cl)c2Cl)CC1", "cloned human MC4R (Homo sapiens)", "IC50", "> 3000 nM"],
  ["N[C@@H](Cc1ccc(OCc2ccccc2)cc1)C(=O)N1CCCN(Cc2cc(OCc3ccccc3)cc(OCc3ccccc3)c2)CC1", "cloned human MC4R (Homo sapiens)", "IC50", "< 1500 nM"],
  ["COc1ccc(OC)c(COc2ccc(C[C@H](N)C(=O)N3CCN(Cc4cccc(Cl)c4Cl)CC3)cc2)c1", "cloned human MC4R (Homo sapiens)", "IC50", "> 3000 nM"],
  ["N[C@@H](Cc1ccc(OCc2ccccc2Cl)cc1)C(=O)N1CCN(Cc2cccc(Cl)c2Cl)CC1", "cloned human MC4R (Homo sapiens)", "IC50", "1500 to 3000 nM"]
]}

Next molecule, IC50 to be filled in.
Field IC50 (entry N[C@@H](Cc1ccc(-c2cc(C(F)(F)F)cc(C(F)(F)F)c2)cc1)C(=O)N1CCN(Cc2cccc(Cl)c2Cl)CC1 ) reads < 1500 nM
